# test.system: TR beta-LBD (Homo sapiens, UniProt P10828)
# Construct: TR alpha-LBD (0.4 nM final concentration) or TR beta-LBD (1.0 nM final concentration) was added
# Sequence (P10828 217-461 limits assumed): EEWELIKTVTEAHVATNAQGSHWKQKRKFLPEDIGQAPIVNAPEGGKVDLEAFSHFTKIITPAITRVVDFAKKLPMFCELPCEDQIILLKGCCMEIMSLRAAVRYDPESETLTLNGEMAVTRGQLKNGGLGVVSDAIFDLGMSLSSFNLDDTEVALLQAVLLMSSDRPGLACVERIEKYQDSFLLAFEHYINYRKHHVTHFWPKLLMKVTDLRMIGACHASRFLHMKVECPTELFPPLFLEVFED
# measurement.description: LanthaScreen TR-FRET Thyroid Receptor beta Coactivator Assay
# measurement.context: TR-FRET coactivator recruitment, 2 hour incubation at room temperature; run in duplicate multiple times, average data reported; read-out: EC50 THRβ-FRET
# Description: LanthaScreen™ TR-FRET Thyroid Receptor alpha Coactivator Assay kit (ThermoFisher) and LanthaScreen™ TR-FRET Thyroid Receptor beta Coactivator Assay kit (ThermoFisher) were used for agonist compound screening. […] After 2 hour incubation at room temperature in dark, the TR-FRET signal was measured on an EnVision plate reader (PerkinElmer) with excitation at 340 nm and dual emission readout at 495 and 520 nm with the delay time of 100 micro second and the integration time of 200 micro second. […]
pEC50: −log10 of the molar value.
property.label: pEC50

(1) O=C(Nc1cc(Cl)c(Oc2n[nH]c(=O)c3ccccc23)c(Cl)c1)c1noc(=O)[nH]1
(2) Cn1nc(Oc2c(Cl)cc(NC(=O)c3noc(=O)[nH]3)cc2Cl)c2ccccc2c1=O
(Q) Among 1 and 2 , whose measured pEC50 is the smaller figure? Selection: enter the item's label.
(A) 1
(1: 7.47, 2: 8.26)

Attribution: patent US12398127B2
